Values from PubChem BioAssay (NCATS)

Method summary: Cellular viability qHTS for adrenocortical cancer (ACC) cell line NCI-H295R (AID 1963990); also: nearly all actives have a fitted effect of over 60% in size
Recorded conditions: CellTiter-Glo ATP luminescence, 48 h; series mostly up to 46.1 µM
Excerpt: PI: Naris Nilubol, MD Surgical Oncology Program, National Cancer Institute (NCI) National Institute of Health (NIH), Bethesda, Maryland Adrenocortical cancer (ACC) is a rare malignancy with poor survival outcomes and few treatment options. Currently, mitotane is the only FDA-approved therapy for ACC. […] Through a quantitative high-throughput drug screen (qHTS), we identified auranofin (AF), a thioredoxin reductase (TXNRD) inhibitor, as a promising candidate drug. […]
Inconclusive results are not listed. Active and inactive are the calls of the source. Calls follow the shape of the dose curve; as a rule, active = well fitted cell-killing curve with a large enough effect; inconclusive = small, poorly fitted or top-dose-only effect; inactive = flat fitted curve, though single readings scatter.
Please answer using one outcome listed in active, inactive

-- ask Each compound tested received a call. Report the one for CN1CCC(=C2c3ccccc3CC(=O)c3sccc32)CC1 .
-- reply inactive

* * *

Method summary: Viability qHTS for spleen associated tyrosine kinase inhibitor (SYKi) naive MV4-11 cells (AID 1963823); also: nearly all actives have a fitted effect of over 40% in size; also: potency is read from the fitted curve at half-maximal effect
Recorded conditions: MV4-11 AML viability, CellTiter-Glo luminescence, 72 h; series mostly up to 45 µM
Records with an inconclusive call do not appear. Activity calls are given as the source filed them. Calls come from the whole dose curve; as a rule, active = well fitted cell-killing curve with a large enough effect; inconclusive = small, poorly fitted or top-dose-only effect, or effect the other way; inactive = no such curve, though single readings can be large or run the other way.
Recorded metric: Potency

Some entries whose results are on file:
| Compound | Potency |
| --- | --- |
| O=C(Nc1ccccc1Br)N[C@@H]1CCN(c2ccc(C(F)(F)F)cn2)C1 | 14.8 µM (active) |
| CN(C)CCOC(c1ccccc1)c1ccccc1 | inactive |
| O=C1NC(c2ccccc2)(c2ccccc2)C(=O)N1COP(=O)(O)O | inactive |
| CC(=O)N(C)C1(c2ccccc2)CCN(CCC[C@]2(c3ccc(Cl)c(Cl)c3)CCCN(C(=O)c3ccccc3)C2)CC1 | 4.11 µM (active) |

-- ask Would you kindly share the measured Potency for CC(C#N)C(C)O[C@@H]1O[C@H](CO)[C@@H](O)[C@H](O)[C@H]1O (stereo partly drawn) ?
-- reply inactive

-- ask // query: C[C@H]1COC2=C1C(=O)C(=O)c1c2ccc2c1CCCC2(C)C
-- reply 5.9 µM (active)

-- ask // query: Cc1cc(-c2cc(OC(=O)c3ccccc3)ccc2Cl)cc2nnc(Nc3ccc(OCCN4CCCC4)cc3)nc12
-- reply 2 µM (active)

-- ask // query: COC(=O)C12C(=O)C(C)=C(O)C1(C)C(C)=CC1C34CCC(OC3=O)C(C)(C)C4CCC12C (stereo not drawn)
-- reply inactive

* * *

Method summary: Viability qHTS for spleen associated tyrosine kinase inhibitor (SYKi) drug resistant MV4-11 cells (AID 1963824); also: nearly all actives have a fitted effect of over 35% in size
Recorded conditions: SYKi-resistant MV4-11 viability, CellTiter-Glo, 72 h; series mostly up to 45 µM
Results filed as inconclusive are left out. Activity calls are given as the source filed them. Calls follow the shape of the dose curve; as a rule, active = well fitted cell-killing curve with a large enough effect; inconclusive = small, poorly fitted or top-dose-only effect, or effect the other way; inactive = no such curve, though single readings can be large or run the other way.
Please answer using one outcome listed in active, inactive

Worked set:
| Compound | Cat |
| --- | --- |
| C[C@@H]1C[C@@H]([C@@H](O)C(C)(C)O)O[C@H]2C[C@@]3(C)C(=C12)C[C@H](O)[C@H]1[C@@]2(C)CCC(=O)C(C)(C)C2CC[C@@]13C (stereo not given in full) | active |
| C[C@]1(O)CC[C@@H]2C(C(=O)O)=CO[C@@H](O[C@@H]3O[C@H](CO)[C@@H](O)[C@H](O)[C@H]3O)[C@@H]21 | inactive |

-- ask Each compound tested received a call. Report the one for CCCS(=O)(=O)Nc1ccc(F)c(C(=O)c2c[nH]c3ncc(-c4ccc(Cl)cc4)cc23)c1F .
-- reply active

-- ask // query: O=C(O)CCc1cccc(O[C@@H]2O[C@H](CO)[C@@H](O)[C@H](O)[C@H]2O)c1O
-- reply inactive

-- ask // query: O=Cc1ccccc1C=O
-- reply inactive

-- ask // query: CCCCCCCCCCCCOCCOCCOCCOCCOCCOCCOCCOCCOCCO
-- reply active

-- ask // query: CCCCCCC[N+](CC)(CC)CCCCc1ccc(Cl)cc1
-- reply active

-- ask // query: Cc1cc2cc3c(C)cc(=O)oc3c(C)c2o1
-- reply inactive

-- ask // query: CC(C)C[C@@H]1NC(=O)[C@@H](C(C)C)NC(=O)[C@@H]2CCCN2C(=O)[C@@H](CC(=O)O)NC(=O)[C@@H](Cc2c[nH]c3ccccc23)NC1=O
-- reply active

-- ask // query: NCCCNc1ccc(Nc2nccc(Nc3cc(C4CC4)[nH]n3)n2)cc1
-- reply active

-- ask // query: Cc1c(CN2CCN(C(=O)C(C)O)CC2)sc2c(N3CCOCC3)nc(-c3cnc(N)nc3)nc12 (stereo not given)
-- reply active

-- ask // query: CC(C)C[C@@H](N)C(=O)O
-- reply inactive

-- ask // query: Nc1c(NC/C=C\COc2cc(CN3CCCCC3)ccn2)c(=O)c1=O
-- reply inactive
